Documented Activity across a set of molecules
molecular target: Cannabinoid receptor 2 (Homo sapiens); assay: Displacement of [3H]CP-55940 from human CB2 receptor expressed in CHO cells at 10 uM; type: cell-based
Parameter Measured: Activity

INSERT INTO assay_data (molecule, measured_result) VALUES
  ('CCCCCCCN1C(=O)C(c2ccccc2)N(c2ccccc2)C1=O (stereo unspecified)', '< 10%'),
  ('O=C1NC(=O)N(c2ccc(Cl)cc2)C1c1ccc(Br)cc1 (stereo unspecified)', '< 10%'),
  ('O=C1C(c2ccc(Cl)cc2)N(c2cccc(Cl)c2)C(=O)N1c1cccc(Cl)c1 (stereo unspecified)', '24.8%'),
  ('O=C1C(c2ccccc2)N(c2ccc(Cl)cc2)C(=S)N1c1ccc(Cl)cc1 (stereo unspecified)', '< 10%'),
  ('O=C1C(c2ccccc2)N(c2ccc(Cl)c(Cl)c2)C(=S)N1c1ccc(Cl)c(Cl)c1 (stereo unspecified)', '< 10%'),
  ('O=C1C(c2ccccc2)N(c2ccc(O)cc2)C(=S)N1c1ccc(O)cc1 (stereo unspecified)', '< 10%'),
  ('O=C1NC(=O)N(c2ccccc2)C1c1ccccc1 (stereo unspecified)', '< 10%'),
  ('O=C1C(c2ccc(Cl)cc2)N(c2ccccc2)C(=O)N1c1ccccc1 (stereo unspecified)', '< 15%'),
  ('COc1ccc(N2C(=O)NC(=O)C2c2ccccc2)cc1 (stereo unspecified)', '< 10%'),
  ('O=C1C(c2ccccc2)N(c2ccccc2)C(=S)N1c1ccccc1 (stereo unspecified)', '< 10%'),
  ('O=C1NC(=O)N(c2ccc(Cl)cc2)C1c1ccccc1 (stereo unspecified)', '< 10%'),
  ('Cc1ccc(N2C(=O)C(c3ccccc3)N(c3ccc(C)cc3)C2=S)cc1 (stereo unspecified)', '< 20%'),
  ('O=C1NC(=O)N(c2ccc(Br)cc2)C1c1ccccc1 (stereo unspecified)', '< 10%'),
  ('O=C1C(c2ccc(Br)cc2)N(c2ccccc2)C(=O)N1c1ccccc1 (stereo unspecified)', '< 15%'),
  ('COc1ccc(N2C(=O)C(c3ccccc3)N(c3ccc(OC)cc3)C2=S)cc1 (stereo unspecified)', '< 20%'),
  ('O=C1NC(=O)N(c2ccc(Br)cc2)C1c1ccc(Br)cc1 (stereo unspecified)', '< 10%');

* * *

target: Cannabinoid receptor 1 (Homo sapiens); assay: Displacement of [3H]SR141716A from human CB1 receptor expressed in CHO cells at 10 uM; format: cell-based
Documented Activity across a set of compounds
Parameter Measured: Activity (%)

INSERT INTO results (compound, measurement_target, parameter_measured, censoring_sign, measured_result) VALUES
  ('COc1ccc(N2C(=O)C(c3ccccc3)N(c3ccc(OC)cc3)C2=S)cc1 (stereo not drawn)', 'Cannabinoid receptor 1 (Homo sapiens)', 'Activity', '=', 65.6),
  ('O=C1C(c2ccccc2)N(C2CCCCC2)C(=O)N1C1CCCCC1 (stereo not drawn)', 'Cannabinoid receptor 1 (Homo sapiens)', 'Activity', '=', 25),
  ('COc1ccc(N2C(=O)C(c3ccccc3)N(c3ccc(OC)cc3)C2=O)cc1 (stereo not drawn)', 'Cannabinoid receptor 1 (Homo sapiens)', 'Activity', '=', 57.8),
  ('O=C1C(c2ccccc2)N(c2ccc(Cl)cc2)C(=S)N1c1ccc(Cl)cc1 (stereo not drawn)', 'Cannabinoid receptor 1 (Homo sapiens)', 'Activity', '=', 93.7),
  ('O=C1C(c2ccc(Br)cc2)N(c2ccccc2)C(=S)N1c1ccccc1 (stereo not drawn)', 'Cannabinoid receptor 1 (Homo sapiens)', 'Activity', '=', 85.1),
  ('O=C1NC(=O)N(c2ccc(Br)cc2)C1c1ccc(Br)cc1 (stereo not drawn)', 'Cannabinoid receptor 1 (Homo sapiens)', 'Activity', '<', 15),
  ('O=C1NC(=O)N(c2ccc(I)cc2)C1c1ccccc1 (stereo not drawn)', 'Cannabinoid receptor 1 (Homo sapiens)', 'Activity', '<', 20),
  ('O=C1C(c2ccccc2)N(c2ccccc2)C(=O)N1c1ccccc1 (stereo not drawn)', 'Cannabinoid receptor 1 (Homo sapiens)', 'Activity', '=', 57.1),
  ('O=C1C(c2ccccc2)N(c2cccc(Cl)c2)C(=O)N1c1cccc(Cl)c1 (stereo not drawn)', 'Cannabinoid receptor 1 (Homo sapiens)', 'Activity', '=', 76),
  ('O=C1C(c2ccccc2)N(c2ccc(Br)cc2)C(=O)N1c1ccc(Br)cc1 (stereo not drawn)', 'Cannabinoid receptor 1 (Homo sapiens)', 'Activity', '=', 102),
  ('O=C1NC(=O)N(c2ccc(Br)cc2)C1c1ccccc1 (stereo not drawn)', 'Cannabinoid receptor 1 (Homo sapiens)', 'Activity', '=', 25.2),
  ('O=C1NC(=O)N(c2ccc(Cl)cc2)C1c1ccccc1 (stereo not drawn)', 'Cannabinoid receptor 1 (Homo sapiens)', 'Activity', '<', 15),
  ('O=C1C(c2ccccc2)N(c2ccc(O)cc2)C(=S)N1c1ccc(O)cc1 (stereo not drawn)', 'Cannabinoid receptor 1 (Homo sapiens)', 'Activity', '<', 20),
  ('CCCCCN1C(=O)C(c2ccccc2)N(c2ccccc2)C1=O (stereo not drawn)', 'Cannabinoid receptor 1 (Homo sapiens)', 'Activity', '=', 41.1),
  ('O=C1C(c2ccc(Cl)cc2)N(c2cccc(Cl)c2)C(=O)N1c1cccc(Cl)c1 (stereo not drawn)', 'Cannabinoid receptor 1 (Homo sapiens)', 'Activity', '=', 67.4),
  ('O=C1C(c2ccccc2)N(c2ccc(Br)cc2)C(=S)N1c1ccc(Br)cc1 (stereo not drawn)', 'Cannabinoid receptor 1 (Homo sapiens)', 'Activity', '=', 100),
  ('COc1ccc(N2C(=O)NC(=O)C2c2ccccc2)cc1 (stereo not drawn)', 'Cannabinoid receptor 1 (Homo sapiens)', 'Activity', '<', 10),
  ('O=C1NC(=O)N(c2ccccc2)C1c1ccccc1 (stereo not drawn)', 'Cannabinoid receptor 1 (Homo sapiens)', 'Activity', '<', 10),
  ('O=C1NC(=S)N(c2ccccc2)C1c1ccccc1 (stereo not drawn)', 'Cannabinoid receptor 1 (Homo sapiens)', 'Activity', '<', 10),
  ('O=C1C(c2ccc(Br)cc2)N(c2ccccc2)C(=O)N1c1ccccc1 (stereo not drawn)', 'Cannabinoid receptor 1 (Homo sapiens)', 'Activity', '=', 75.4),
  ('O=C1C(c2ccccc2)N(c2ccc(Cl)cc2)C(=O)N1c1ccc(Cl)cc1 (stereo not drawn)', 'Cannabinoid receptor 1 (Homo sapiens)', 'Activity', '=', 101),
  ('O=C(c1ccccc1)N1C(=O)C(c2ccccc2)N(c2ccccc2)C1=O (stereo not drawn)', 'Cannabinoid receptor 1 (Homo sapiens)', 'Activity', '<', 10),
  ('O=C1C(c2ccccc2)N(c2ccc(Cl)c(Cl)c2)C(=S)N1c1ccc(Cl)c(Cl)c1 (stereo not drawn)', 'Cannabinoid receptor 1 (Homo sapiens)', 'Activity', '=', 78.7);

* * *

Target: Fatty-acid amide hydrolase 1 (Rattus norvegicus) (UniProt P97612)
Sequence (whole entry): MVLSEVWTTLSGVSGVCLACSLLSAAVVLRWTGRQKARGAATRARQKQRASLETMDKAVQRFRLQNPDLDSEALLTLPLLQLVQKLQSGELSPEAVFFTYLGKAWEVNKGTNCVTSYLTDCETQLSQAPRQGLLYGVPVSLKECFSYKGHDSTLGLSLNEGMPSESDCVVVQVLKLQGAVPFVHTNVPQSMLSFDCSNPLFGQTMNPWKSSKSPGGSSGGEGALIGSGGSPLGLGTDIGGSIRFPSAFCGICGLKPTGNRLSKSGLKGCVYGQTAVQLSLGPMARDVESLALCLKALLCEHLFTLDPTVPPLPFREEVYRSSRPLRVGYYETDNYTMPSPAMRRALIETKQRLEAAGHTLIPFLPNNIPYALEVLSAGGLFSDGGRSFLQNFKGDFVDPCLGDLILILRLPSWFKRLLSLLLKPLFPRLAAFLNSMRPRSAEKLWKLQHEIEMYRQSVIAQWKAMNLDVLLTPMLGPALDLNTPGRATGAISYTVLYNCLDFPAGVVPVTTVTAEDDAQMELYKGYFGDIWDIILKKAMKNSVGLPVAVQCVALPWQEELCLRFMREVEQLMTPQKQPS
Experiment: Inhibition of FAAH in rat brain homogenates at 10 uM
Format: tissue-based
Documented inhibition across a set of compounds
Parameter Measured: inhibition (%)

INSERT INTO results (compound, censoring_sign, measured_result) VALUES
  ('O=C1C(c2ccccc2)N(c2ccc(Br)cc2)C(=S)N1c1ccc(Br)cc1 (stereo not given)', '<', 10),
  ('O=C1C(c2ccc(Br)cc2)N(c2ccccc2)C(=O)N1c1ccccc1 (stereo not given)', '=', 14.5),
  ('COc1ccc(N2C(=O)C(c3ccccc3)N(c3ccc(OC)cc3)C2=O)cc1 (stereo not given)', '<', 10),
  ('COc1ccc(N2C(=O)C(c3ccccc3)N(c3ccc(OC)cc3)C2=S)cc1 (stereo not given)', '<', 10),
  ('O=C1C(c2ccc(Br)cc2)N(c2ccc(Cl)cc2)C(=O)N1c1ccc(Cl)cc1 (stereo not given)', '=', 15.4);

* * *

target: Cannabinoid receptor 1 (Homo sapiens, UniProt P21554); assay: Displacement of [3H]SR141716A from human CB1 receptor expressed in CHO cells at 10 uM; type: cell-based
Sequence (P21554 whole entry): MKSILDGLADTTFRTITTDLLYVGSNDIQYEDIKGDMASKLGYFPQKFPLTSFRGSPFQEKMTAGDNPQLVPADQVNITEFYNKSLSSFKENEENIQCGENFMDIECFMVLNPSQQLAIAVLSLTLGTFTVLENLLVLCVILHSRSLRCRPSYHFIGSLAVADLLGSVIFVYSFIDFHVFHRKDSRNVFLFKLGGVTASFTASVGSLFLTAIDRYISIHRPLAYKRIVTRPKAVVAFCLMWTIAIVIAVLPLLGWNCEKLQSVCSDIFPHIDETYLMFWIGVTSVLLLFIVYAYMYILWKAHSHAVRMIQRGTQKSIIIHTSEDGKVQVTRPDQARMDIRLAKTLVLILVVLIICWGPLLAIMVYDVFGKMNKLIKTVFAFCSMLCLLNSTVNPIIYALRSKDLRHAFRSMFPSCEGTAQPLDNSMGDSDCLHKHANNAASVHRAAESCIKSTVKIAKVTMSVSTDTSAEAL
Documented Activity across a set of compounds
Parameter Measured: Activity

INSERT INTO measurements (compound, measured_result) VALUES
  ('O=C1NC(=O)N(c2ccc(Cl)cc2)C1c1ccc(Br)cc1 (stereo not drawn)', '< 15%'),
  ('CCCCCC(=O)N1C(=O)C(c2ccccc2)N(c2ccccc2)C1=O (stereo not drawn)', '< 10%'),
  ('O=C1NC(=O)N(c2ccccc2)C1c1ccc(Br)cc1 (stereo not drawn)', '< 15%');
